assay: chemical genetic growth profiling, strain panel (AID 1159580);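 also: tested at 20 µM; growth read once vehicle control cultures reached saturation at 30 °C; 1 = growth at the plate median or of vehicle wells; lower values mean less growth of the strain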
protocol.conditions: S. cerevisiae deletion strains, growth OD, locus YPL078C, strain atp4
The whole screen tested about 5,500 compounds, of which about 2,000 (36%) were called active. Roughly 18% stayed inconclusive and do not appear here. Rule as the data show it: active = normalized growth mostly below about 0.91 (no sharp cut-off); inconclusive = no clear call, values can overlap the other calls; inactive = mostly above about 0.92. Some of the results follow.
Respond using exactly one of the listed classes: yes (active), no (inactive)

*Q* Answer briefly: the call reported for C=CC(C1=CC(=O)C(OC)=CC1=O)c1ccc(OC)cc1 (stereo not drawn) in this assay.
*A* yes

---

assay: chemical genetic growth profiling, strain panel (AID 1159580);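 also: tested at 20 µM; growth read once vehicle control cultures reached saturation at 30 °C; 1 = growth at the plate median or of vehicle wells; lower values mean less growth of the strain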
protocol.conditions: S. cerevisiae deletion strains, growth OD, locus YDL028C, strain MPS1, hits give low values
Among all 5,500 compounds or so, about 2,000 (36%) were called active. About 18% were inconclusive and are not listed. This is one part of the list.
List of normalized growth values.
The response must contain the number and no unit.

O=C(NCCSCc1cccc(C(F)(F)F)c1)Nc1cccc(C(F)(F)F)c1 0.996
CCOc1ccc(/C=C(\C)[N+](=O)[O-])cc1OC 0.973
O=C(c1ccccc1)c1cc(Cl)ccc1NC(=S)Nc1ccc(F)cc1 0.994

*Q* Sample `FC(F)(F)c1cccc(NC(=S)Nc2csc(C(F)(F)F)c2-c2ccccc2)c1` — what was its normalized growth?
*A* 0.992

*Q* // next record `C/C(=C\c1ccc2c(c1)OCO2)[N+](=O)[O-]`
*A* 0.108

*Q* Same question for `Cc1c(C)c(C)c(CSC(N)=Nc2ccc(F)cc2)c(C)c1C` please.
*A* 0.995

*Q* Here is the next molecule: `CSc1ccc(/C=C(\C)[N+](=O)[O-])cc1`
*A* 0.0841

Data provenance: PubChem BioAssay AID1159580
